# protocol: qHTS for inhibitors of Vif-A3G interactions: Cherry picks; also: nearly all actives have a fitted effect of over 80% in size
# measurement setup: HeLa A3G-eYFP + Vif, 24 h; eYFP fluorescence increase; series mostly up to 36.9 µM
In all, about 2,100 compounds went through this assay and about 650 (31%) were called active. About 16% were inconclusive and are not listed. Calls follow the shape of the dose curve; as a rule, active = well fitted inhibition curve with a large enough effect; inconclusive = small, poorly fitted or top-dose-only effect; inactive = flat fitted curve, though single readings scatter. The list shows a part of the results.
Outcome codes: label 1 (active), label 0 (inactive)

>>> assigned_class("Cc1ccc(-c2cc(-c3ccco3)c3c(N)c(C(=O)NN)oc3n2)cc1")
"label 1"
>>> assigned_class("O=C(NC(=S)Nc1ccc(-c2ccccc2)cc1)c1ccccc1")
"label 0"
>>> assigned_class("CCC(C)Sc1cccc(-c2nc3cc(C)ccn3c2NC2CCCCC2)c1 (stereo unspecified)")
"label 0"
>>> assigned_class("COc1cccc(N2CCN(Cc3nc4scc(-c5ccccc5)c4c(=O)[nH]3)CC2)c1")
"label 0"
>>> assigned_class("NNC(=O)c1oc2nc(-c3ccccc3)cc(-c3ccco3)c2c1N")
"label 1"
>>> assigned_class("CCCCN1C(=O)c2cccc3cc(O)cc(c23)C1=O")
"label 1"

* * *

# protocol: qHTS for inhibitors of Vif-A3G interactions: Cherry picks; also: nearly all actives have a fitted effect of over 80% in size
# measurement setup: HeLa A3G-eYFP + Vif, 24 h; eYFP fluorescence increase; series mostly up to 36.9 µM
In all, about 2,100 compounds went through this assay and about 650 (31%) were called active. About 16% were inconclusive and are not listed. Calls follow the shape of the dose curve; as a rule, active = well fitted inhibition curve with a large enough effect; inconclusive = small, poorly fitted or top-dose-only effect; inactive = flat fitted curve, though single readings scatter. The list shows a part of the results.
Possible outcomes: active, inactive

>>> assigned_class("COc1nc(-c2ccccc2)cc(-c2ccc3c(c2)OCO3)c1C#N")
"inactive"
>>> assigned_class("Brc1ccc2c(c1)[C@H]1OCC[C@H]1[C@@H](c1cccs1)N2")
"inactive"
>>> assigned_class("O=c1[nH]c(NCc2ccco2)nnc1Cc1ccccc1Cl")
"inactive"
>>> assigned_class("NC(=O)c1cccc(-c2ccnc3c2CC(C(=O)NCc2ccco2)O3)c1 (stereo not given)")
"inactive"
>>> assigned_class("COc1ccc(/C=N/NC(=O)c2cccnc2)cc1COc1ccc(NC(C)=O)cc1")
"inactive"
>>> assigned_class("CSCC[C@H](NC(=O)[C@H](Cc1ccccc1)n1c(=O)[nH]c2ccccc2c1=O)C(=O)N1CCC[C@@H]1C(=O)O")
"inactive"
>>> assigned_class("CC1(C(=O)NCc2cccs2)Cc2c(-c3ccc(C(N)=O)cc3)ccnc2O1 (stereo not given)")
"inactive"
>>> assigned_class("CCCn1c(C2CCCN2c2nc(-c3cccc(Br)c3)cs2)nc2ccccc21 (stereo not given)")
"inactive"
>>> assigned_class("COc1ccc(NCc2cc3cc4c(cc3n(CC(=O)Nc3cc(C)ccc3C)c2=O)OCCO4)cc1")
"active"
>>> assigned_class("CC(/C=N/NC(=O)c1cc(-c2ccc3ccccc3c2)n[nH]1)=C\\c1ccco1")
"inactive"

* * *

# protocol: qHTS for inhibitors of Vif-A3G interactions: Cherry picks; also: nearly all actives have a fitted effect of over 80% in size; also: potency is read from the fitted curve at half-maximal effect
# measurement setup: HeLa A3G-eYFP + Vif (tagged APOBEC3G with the HIV-1 protein that degrades it), 24 h; eYFP fluorescence increase; series mostly up to 36.9 µM
Out of some 2,100 compounds screened, about 650 (31%) were called active. About 16% were inconclusive and are not listed. The list shows a part of the results.
readout: Potency

>>> value_measured("COc1cc2ccccc2cc1C(=O)N/N=C/c1cccs1")
"inactive"
>>> value_measured("O=[N+]([O-])c1ccc(N/N=C\\c2cccn2-c2ccccc2)nc1")
"inactive"
>>> value_measured("CCn1c(O)c(/C=N/N=C/c2ccc(OC)cc2)c2cc(C3=NNC(=O)CC3)ccc21")
"5.8 µM (active)"
>>> value_measured("CCN(CC)c1ccc(NC(=O)c2ccc(=O)[nH]c2)cc1S(=O)(=O)Nc1ccccc1OC")
"inactive"
>>> value_measured("COc1ccc(S(=O)(=O)Nc2cccc3ccccc23)cc1")
"inactive"
>>> value_measured("COc1ccc2o/c(=N/NC(=O)c3cccs3)c(C(N)=O)cc2c1")
"14 µM (active)"
>>> value_measured("CCOc1ccc(NC(=O)N2CC=C(c3c[nH]c4ccccc34)CC2)cc1")
"inactive"
>>> value_measured("O=[N+]([O-])c1ccc(N/N=C/c2c[nH]c3ccccc23)cc1")
"11.6 µM (active)"
>>> value_measured("CCOc1ccc(NC(=O)/C(C#N)=C/c2ccc(N3CCCC3)c(C)c2)cc1")
"6.51 µM (active)"
>>> value_measured("COc1cc(OC)cc(C(=O)Nc2ccc(N3CCN(C(=O)c4cccs4)CC3)cc2)c1")
"inactive"
